Target: X-box-binding protein 1 (Homo sapiens)
Assay: XBP1 reporter suppression in cells – counter-screen, dose response (AID 504313);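 further: CHO cells carrying an XBP1 reporter stimulated with tunicamycin; potency is for inhibition of the tunicamycin-induced reporter signal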
Settings: XBP1 reporter cell assay, percent of control
Active and inactive are the calls of the source. How the calls were made is not given here.
Choose one outcome from this list and give only that: active, inactive

C=C(C)C(=O)OC1(C(F)(F)F)Oc2cc(C)ccc2NC1=O (stereo unspecified) = inactive
FC(F)(F)c1cccc(Sc2nc(-c3ccccc3)nnc2C(F)(F)F)c1 = inactive
CC(C)(C)c1ccc(C(=O)Nc2ccc(CC(=O)O)cc2)o1 = active
CC1CCN(c2nc3ccc(C(=O)O)cc3s2)CC1 = inactive
COc1ccc(Cn2c(SCc3cc(C)ccc3C)nc3cc(OC)c(OC)cc3c2=N)cc1 = inactive
COc1oc(-c2ccc(Cl)cc2)nc1C(F)(F)F = inactive
COc1cc(NC(=O)COc2ccccc2[N+](=O)[O-])ccc1NC(=O)c1cccs1 = inactive
CCCCCCN=C(CC)c1c(O)n(CCCC)c(=O)[nH]c1=O = inactive

Q: Kindly provide the recorded test outcome for the following molecule: CC(C)(C)c1cc(-c2csc(Nc3ccccc3)[n+]2Cc2ccc(C(=O)O)cc2)cc(C(C)(C)C)c1O
Ans: inactive

Q: Kindly provide the recorded test outcome for the following molecule: O=[N+]([O-])c1ccc(COc2ccc(-c3[nH]ncc3-c3ccccc3)c(O)c2)cc1
Ans: inactive

Q: Kindly provide the recorded test outcome for the following molecule: O=C1C=CC(O)(c2cc(=O)c3c(O)cc(O)cc3o2)C=C1
Ans: active

* * *

Target: X-box-binding protein 1 (Homo sapiens)
Assay: XBP1 reporter suppression in cells – counter-screen, dose response (AID 504313)
Conditions: XBP1 reporter cell assay, percent of control
Calls of active or inactive are those of the source. The rule behind the calls is not given here.
Choose one outcome from this list and give only that: active, inactive

Q: Kindly provide the recorded test outcome for the following molecule: Cc1cc(C)cc(OC2CCCCC2NS(=O)(=O)c2ccccc2)c1 (stereo not given)
Ans: inactive

Q: Kindly provide the recorded test outcome for the following molecule: Cc1ccc(CNCC(O)(c2ccccc2)c2ccc(Cl)cc2)cc1 (stereo not given)
Ans: inactive

Q: Kindly provide the recorded test outcome for the following molecule: Cc1ccc(C)c(OCc2ccc(C(=O)N3N=C(C(F)F)CC3(O)C(F)F)o2)c1 (stereo not given)
Ans: inactive

Q: Kindly provide the recorded test outcome for the following molecule: Cc1cccc(NS(=O)(=O)c2ccc(C3CCCCC3)cc2)c1
Ans: active

Q: Kindly provide the recorded test outcome for the following molecule: O=S(=O)(NC1CC1)c1ccc(S(=O)(=O)N2CCCC3(CCCCC3)C2)cc1
Ans: inactive

Q: Kindly provide the recorded test outcome for the following molecule: CCCCCCn1c(CN2CCCC(C)C2)nc2c1c(=O)n(C)c(=O)n2C (stereo not given)
Ans: inactive

Q: Kindly provide the recorded test outcome for the following molecule: CCCCNS(=O)(=O)c1ccc2nc(-c3cccnc3)cc(C(=O)NC3CCCC3)c2c1
Ans: inactive

Q: Kindly provide the recorded test outcome for the following molecule: COc1ccc(CC2(CO)CCN(CC3=Cc4cc(Cl)ccc4OC3)CC2)cc1
Ans: active

Q: Kindly provide the recorded test outcome for the following molecule: CC(/C=C1\SC(=O)N(CCCC(=O)O)C1=O)=C\c1ccccc1
Ans: active

Q: Kindly provide the recorded test outcome for the following molecule: Cc1cc(-c2n[nH]c(=S)n2/N=C/C(Br)=C/c2ccccc2)n[nH]1
Ans: inactive

* * *

Biological target: X-box-binding protein 1 (Homo sapiens) (UniProt P17861)
Test: XBP1 reporter suppression in cells – counter-screen, dose response (AID 504313)
Details: XBP1 reporter cell assay, percent of control
Activity calls are given as the source filed them. How the calls were made is not given here.
molecules and their reported IC50

Fc1cc(F)c2nc(Nc3nc4cc5c(cc4s3)OCO5)sc2c1 = > 10 µM (inactive)
COc1ccc(-c2nc(NC(=O)Cn3ccc(C(F)(F)F)n3)sc2C)cc1 = > 10 µM (inactive)
CCCc1cc(-c2nc(N)ncc2-c2ccc3c(c2)OCCCO3)c(O)cc1OC = 5.01 µM

Now consider the entry below.
Observed IC50, X-box-binding protein 1 (Homo sapiens) (UniProt P17861), COc1ccc(-c2nn(-c3ccccc3)cc2/C=N/N2C(=O)CSC2=S)cc1 : > 10 µM (inactive)

* * *

Molecular target: X-box-binding protein 1 (Homo sapiens)
Assay: XBP1 reporter suppression in cells – counter-screen, dose response (AID 504313)
Conditions: XBP1 reporter cell assay, percent of control
Activity calls are given as the source filed them. No rule for the calls is given here.
Choose one outcome from this list and give only that: class 1 for active, class 0 for inactive

Cc1ccc(NC2=C/C(=N\S(=O)(=O)c3cccs3)c3ccccc3C2=O)c(C)c1 = class 1
C/C=C/Cn1c(SCCCc2ccccc2)nc2c1c(=O)[nH]c(=O)n2C = class 0
C=CCN1C(=O)/C(=C/c2ccc(OC(C)=O)c(OCC)c2[N+](=O)[O-])SC1=S = class 0
OC(CNCCc1ccc(C(F)(F)F)cc1)COc1cccc2ccccc12 (stereo not drawn) = class 0
Cc1cccc(C)c1N1CCN(c2ccc3nnc(C(F)(F)F)n3n2)CC1 = class 0
CCc1ccc(/C=C2\SC(=S)N(CCCC(=O)Nc3ccccn3)C2=O)cc1 = class 1
CCc1ccc(OCCNC(=O)c2ccccc2SCc2ccccc2)cc1 = class 0
C=CCn1c(CCc2cc(C(C)(C)C)c(O)c(C(C)(C)C)c2)n[nH]c1=S = class 0

Q: Kindly provide the recorded test outcome for the following molecule: O=[N+]([O-])c1ccc(S(=O)(=O)CC(CN2CCCCC2)N2CCCCC2)cc1 (stereo not drawn)
Ans: class 0

Q: Kindly provide the recorded test outcome for the following molecule: CCCCCCn1c(-c2ccco2)nc2oc3cc(OC)ccc3c(=O)c2c1=O
Ans: class 0

* * *

Molecular target: X-box-binding protein 1 (Homo sapiens) (UniProt P17861)
Assay: XBP1 reporter suppression in cells – counter-screen, dose response (AID 504313);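 further: CHO cells carrying an XBP1 reporter stimulated with tunicamycin; potency is for inhibition of the tunicamycin-induced reporter signal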
Details: XBP1 reporter cell assay, percent of control
Calls of active or inactive are those of the source. The rule behind the calls is not given here.
Choose one outcome from this list and give only that: active, inactive

// below: answered compounds
CC1=C(CO)C(=O)OC([C@@H](C)C2CC[C@H]3C4C[C@H]5O[C@]56[C@@H](O)C=CC(=O)[C@]6(C)C4CC[C@]23C)C1 (some centres undefined) = inactive
Cc1cc(C)cc(NC(=O)/C(C#N)=C/c2cn(CC(=O)NCc3ccco3)c3ccccc23)c1 = active
O=C(CCl)Nc1cn(-c2ccccc2)nc1-c1ccccc1 = inactive
CCOC(=O)C(NC(=O)Nc1cccc(C)n1)(OCC(F)(F)F)C(F)(F)F (centres undefined) = inactive
O=C(Nc1ccc(Br)c(C(F)(F)F)c1)c1ccc(C(F)(F)F)cc1 = active
O=C(c1ccco1)N1CCN(c2c(-c3ccccc3)c3cc(Cl)ccc3[nH]c2=O)CC1 = inactive

Q: Kindly provide the recorded test outcome for the following compound: CC(=O)N(C1=C(Cl)C(=O)c2ccccc2C1=O)C1CCCCC1
Ans: inactive

Q: Kindly provide the recorded test outcome for the following compound: CC(C)=CCc1c(O)cc2oc3c(CC=C(C)C)c(O)c(O)c(CC=C(C)C)c3c(=O)c2c1O
Ans: active

Q: Kindly provide the recorded test outcome for the following compound: CCn1cc([N+](=O)[O-])c(C(=O)N2N=C(c3ccc(Cl)c(Cl)c3)CC2c2ccccc2O)n1 (centres undefined)
Ans: inactive

* * *

Target: X-box-binding protein 1 (Homo sapiens) (UniProt P17861)
Experiment: XBP1 reporter suppression in cells – counter-screen, dose response (AID 504313);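 further: CHO cells carrying an XBP1 reporter stimulated with tunicamycin; potency is for inhibition of the tunicamycin-induced reporter signal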
Details: XBP1 reporter cell assay, percent of control
Activity calls are given as the source filed them. The rule behind the calls is not given here.
measurement-kind: IC50

Solved cases (4 shown):
COc1ccc(NC(=O)c2cc(-c3cc(C)cc(C)c3O)n[nH]2)cc1Cl = > 10 µM (inactive)
CCOC(=O)C1=C(c2ccccc2)O/C(=C(/C#N)C(F)(F)F)S1 = > 10 µM (inactive)
O=C(CCl)N(c1ccc(Cl)cc1)c1c[nH]c2ccccc12 = inactive
Cc1cccc(NC(=O)CSc2nc(C)c(CC(=O)c3ccc(Br)cc3)c(C)c2C#N)c1C = inactive

Now consider the entry below.
Observed IC50, X-box-binding protein 1 (Homo sapiens) (UniProt P17861), O=C(Nc1ccc(OC(F)F)cc1)Nc1cccc(C(F)(F)F)c1 : > 10 µM (inactive)

* * *

Molecular target: X-box-binding protein 1 (Homo sapiens)
Assay: XBP1 reporter suppression in cells – counter-screen, dose response (AID 504313);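 further: CHO cells carrying an XBP1 reporter stimulated with tunicamycin; potency is for inhibition of the tunicamycin-induced reporter signal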
Settings: XBP1 reporter cell assay, percent of control
The source made the active and inactive calls. No rule for the calls is given here.
measurement-kind: IC50

Solved cases (9 shown):
CC(NC(=O)/C(C#N)=C/c1ccc(Cl)c([N+](=O)[O-])c1)c1ccccc1 (stereo not given) = > 10 µM (inactive)
CCCN1C=CC(=C2C(=O)c3ccccc3C2=O)C=C1 = inactive
COc1ccc(Cn2c(SCc3ccccc3C)nc3cc(OC)c(OC)cc3c2=N)cc1 = > 10 µM (inactive)
COC(=O)c1ccccc1NC1=C/C(=N\S(=O)(=O)c2cccs2)c2ccccc2C1=O = inactive
CC(C)(C)c1cc(S(=O)(=O)CCc2ccccn2)cc(C(C)(C)C)c1F = inactive
C/C(=N\OCc1cccc(C(=O)O)c1)c1ccc(Cl)cc1 = inactive
FC(F)(F)c1cccc(CN2CCC(c3cc(-c4cccs4)n[nH]3)CC2)c1 = > 10 µM (inactive)
O=C(Nc1ccccc1NC(=O)NC1CCCCC1)NC1CCCCC1 = inactive
CCOc1cc(C)c(-c2onc(C(F)(F)F)c2-c2csc(C)n2)c(O)c1 = inactive

// recorded IC50 for Cc1ccc2c(C)nc(Nc3nc(CSc4nc5ccccc5[nH]4)cc(=O)[nH]3)nc2c1 : inactive

Reference source: PubChem BioAssay AID504313
